The following compounds are listed with their measured B. signalgrass plant response rating values.
Test system: surinam grass
run description: Test B pre/postemergence surinam grass
Type: in vivo, Brachiaria decumbens
measurement parameters: Preemergence, Rate 125 g/ha; scale of 0 to 10 where 0 is no effect and 10 is complete control

These solved cases illustrate the format of a correct answer.
COC(=O)C(C)n1c(=O)on(C(=O)N(c2ccc(F)cc2)C(C)C)c1=O (stereo not shown) [Compound 616]
0
CC(C)N(C(=O)n1oc(=O)n(CCF)c1=O)c1ccc(Cl)cc1 [Compound 668]
8
COC(C)n1c(=O)on(C(=O)N(c2ccc(Cl)cc2)C(C)C)c1=O (stereo not shown) [Compound 592]
0

Then there is this compound:
Record CCCCn1c(=O)on(C(=O)N(c2ccc(F)cc2F)C(C)C)c1=O [Compound 635] ; system surinam grass; B. signalgrass plant response rating = 8

---

Test system: crabgrass
run description: Test B pre/postemergence crabgrass
Format: in vivo, Digitaria sanguinalis
measurement parameters: Rate 62 g/ha, Postemergence; scale 0 to 10 (0 no effect, 10 complete control)
measurement kind: Crabgrass plant response rating

CC(C)N(C(=O)n1oc(=O)n(CC(=O)N(C)C)c1=O)c1ccc(F)cc1F [Compound 440]
1
Cc1ccccc1-n1c(=O)on(C(=O)N(c2ccc(Cl)cc2)C(C)C2CC2)c1=O (stereo not drawn) [Compound 330]
0
COCn1c(=O)on(C(=O)N(c2ccc(F)cc2)C(C)C)c1=O [Compound 293]
6
CCCCCn1c(=O)on(C(=O)N(c2ccc(F)cc2)C(C)C)c1=O [Compound 290]
0
CC(C)C(=O)Cn1c(=O)on(C(=O)N(c2ccccc2)C(C)C)c1=O [Compound 485]
3

Sure, the documented Crabgrass plant response rating for CSCCn1c(=O)on(C(=O)N(c2ccc(F)cc2)C(C)C)c1=O [Compound 314] is 0

---

Below, each of the molecules is paired with its reported Plant response rating, Giant foxtail value.
System: giant foxtail
run description: Test B pre/postemergence giant foxtail
Format: in vivo, Setaria faberii
measurement parameters: Preemergence, Rate 125 g/ha; scale of 0 to 10 where 0 is no effect and 10 is complete control
Form rule: numeric answer, no unit written next to it.

Illustrative cases are given below, each with its answer.
CC(=O)C(C)n1c(=O)on(C(=O)N(c2ccc(F)cc2)C(C)C)c1=O (stereo not drawn)
9
CC(C)N(C(=O)n1oc(=O)n(CCN(C)C(=O)c2ccccc2)c1=O)c1ccc(F)cc1
2
CC(C)N(C(=O)n1oc(=O)n(C(C)C(=O)N(C)C)c1=O)c1ccc(F)cc1 (stereo not drawn)
10
CC(C)N(C(=O)n1oc(=O)n(CC(=O)N(C)C)c1=O)c1ccc(F)cc1F
6
COP(=O)(CCn1c(=O)on(C(=O)N(c2ccccc2)C(C)C)c1=O)OC
0

Please examine the following record next.
Just so you know, measured Plant response rating, Giant foxtail for `CC(C)N(C(=O)n1oc(=O)n(C[Si](C)(C)c2ccccc2)c1=O)c1ccc(Cl)cc1` came out at 0

---

Test system: crabgrass
run description: Test B pre/postemergence crabgrass
Format: in vivo, Digitaria sanguinalis
measurement parameters: Preemergence, Rate 125 g/ha; scale of 0 to 10 where 0 is no effect and 10 is complete control
measurement kind: Plant response rating, Crabgrass
Output: the number by itself.

Previously resolved entries follow.
CC(C)N(C(=O)n1oc(=O)n(CC#N)c1=O)c1ccccc1
0
CC(C)N(C(=O)n1oc(=O)n(C(CF)CF)c1=O)c1ccc(Cl)cc1
9
CC(C)N(C(=O)n1oc(=O)n(C(C)C2=NOCC2)c1=O)c1ccc(F)cc1 (racemic)
9

Reported Plant response rating, Crabgrass ( `CCOC(=O)C=C(Cn1c(=O)on(C(=O)N(c2ccc(F)cc2)C(C)C)c1=O)OCC` ) = 7

Entry `CCn1ncc(Cn2c(=O)on(C(=O)N(c3ccc(F)cc3)C(C)C)c2=O)c1Cl` , Plant response rating, Crabgrass reported as 9

// sample `CC(C)N(C(=O)n1oc(=O)n(CCS(C)(=O)=O)c1=O)c1ccc(F)cc1` , its Plant response rating, Crabgrass was 6

# compound `CC(C)N(C(=O)n1oc(=O)n(CCF)c1=O)c1ccc(F)cc1F` ; its Plant response rating, Crabgrass = 10

Sourced from patent US6737383B1
